Test system: HCT116
Assay: MTT antiproliferative assay, HCT116
Assay type: cell-based, human
Settings: Homo sapiens, HCT-116, 72 h, HCT116, 72 h incubation, mean ± SD of three independent experiments
Response field label: string, one of 1 (IC50 strictly below 40 µM) or -1.

compound	answer-label
COc1cc(/C=C/C(=O)c2c[nH]c3ccccc23)ccc1O [19a]	-1
COn1cc(/C=C/C(=O)c2ccc(O)cc2)c2ccccc21 [14c]	1
COCC(C)Oc1[nH]c2ccccc2c1/C=C/C(=O)c1ccccc1F (stereo not shown) [11j]	1
COn1cc(C(=O)/C=C/c2ccc(O)c(O)c2)c2ccccc21 [18c]	1
COn1cc(/C=C/C(=O)c2ccccc2O)c2ccccc21 [13c]	-1
O=C(/C=C/c1ccc(O)c(O)c1)c1c[nH]c2ccccc12 [18a]	1
Cn1cc(/C=C/C(=O)c2ccc(C(F)(F)F)cc2)c2ccccc21 [12b]	1
Cn1cc(/C=C/C(=O)c2ccc(O)cc2)c2ccccc21 [14b]	-1
O=C(/C=C/c1c[nH]c2ccccc12)c1ccc(O)cc1 [14a]	1

* * *

# IC50 per entry
Test system: HCT116
Assay: MTT antiproliferative assay, HCT116
Assay type: cell-based, human
Conditions: Homo sapiens, HCT-116, HCT116, 72 h incubation, mean ± SD of three independent experiments

compound	measurement-target	comparison-operator	IC50 / µM
Cn1cc(C(=O)/C=C/c2ccc(O)cc2)c2ccccc21 [17b]	HCT116	>	100
Cn1cc(C(=O)/C=C/c2ccc(O)c(O)c2)c2ccccc21 [18b]	HCT116	=	7.1

* * *

Test system: HCT116
Assay: MTT antiproliferative assay, HCT116
Assay type: cell-based, human
Conditions: HCT116, 72 h incubation, mean ± SD of three independent experiments
param class (str): category from IC50; see ranges bin 1 (below 30 µM), bin 2 (30 µM to below 40 µM), bin 3 (40 µM or more)

compound	answer-label
COn1cc(/C=C/C(=O)c2ccccc2F)c2ccccc21 [11c]	bin 2
COc1cc(/C=C/C(=O)c2c[nH]c3ccccc23)ccc1O [19a]	bin 2
CCCCOc1[nH]c2ccccc2c1/C=C/C(=O)c1ccccc1F [11h]	bin 2
CC(C)Oc1[nH]c2ccccc2c1/C=C/C(=O)c1ccc(F)cc1 [11g]	bin 2
COn1cc(C(=O)/C=C/c2ccc(O)c(O)c2)c2ccccc21 [18c]	bin 1
COc1[nH]c2ccccc2c1/C=C/C(=O)c1ccccc1F [11d]	bin 3
CC(C)COc1[nH]c2ccccc2c1/C=C/C(=O)c1ccc(F)cc1 [11i]	bin 2
O=C(/C=C/c1c[nH]c2ccccc12)c1ccccc1F [11a]	bin 2
N.N.[Cl][Pt][Cl] [Cisplatin, reference compound]	bin 1
Cn1cc(/C=C/C(=O)c2ccccc2F)c2ccccc21 [11b]	bin 3
CCCOc1[nH]c2ccccc2c1/C=C/C(=O)c1ccccc1F [11f]	bin 2

* * *

Tested on: Hela
Assay: MTT antiproliferative assay, HeLa
Format: cell-based, human
Conditions: 72 h incubation, mean ± SD of three independent experiments
Some compounds, each annotated with its measured IC50.
measured-property: IC50 (µM)

compound	measured-property	comparison-operator	number
Cn1cc(/C=C/C(=O)c2ccccc2F)c2ccccc21 [11b]	IC50	=	57.9
N.N.[Cl][Pt][Cl] [Cisplatin, reference compound]	IC50	=	6.5
CCCCOc1[nH]c2ccccc2c1/C=C/C(=O)c1ccccc1F [11h]	IC50	=	48.2
CC(C)COc1[nH]c2ccccc2c1/C=C/C(=O)c1ccc(F)cc1 [11i]	IC50	=	54.6
COc1[nH]c2ccccc2c1/C=C/C(=O)c1ccccc1F [11d]	IC50	>	100
